- target.or.system: HLA-A*26:01
- method.notes: IEDB peptide-MHC binding, purified MHC/direct/fluorescence; filed as Kd, often an IC50 or EC50 that approximates it; bounds were set here for any values at or beyond the usual limits of such assays
- run.conditions: source organism: Influenza A virus(A/swine/Henan/5/2004(H9N2))
value.type: Kd

Request: Kd, test system HLA-A*26:01, entry `GYMFESKSM` ≥ 20 µM

###

- target.or.system: HLA-B*46:01
- method.notes: IEDB peptide-MHC binding, purified MHC/competitive/fluorescence; filed as Kd, often an IC50 or EC50 that approximates it; bounds were set here for any values at or beyond the usual limits of such assays
- run.conditions: source organism: Mycobacterium tuberculosis variant bovis BCG str. Pasteur 1173P2
value.type: Kd (nM)
Lab book: enter the figure in nM, no units written.

Request: Kd, test system HLA-B*46:01, entry `FLLDGGAPF` 21.2

###

- target.or.system: HLA-A*02:03
- method.notes: IEDB peptide-MHC binding, purified MHC/competitive/fluorescence; filed as Kd, often an IC50 or EC50 that approximates it; bounds were set here for any values at or beyond the usual limits of such assays
- run.conditions: source organism: Homo sapiens
value.type: Kd

Reported Kd, sequence `FLHSGTAKS` : ____ 1.25 nM

###

- target.or.system: HLA-A*69:01
- method.notes: IEDB peptide-MHC binding, purified MHC/direct/fluorescence; filed as Kd, often an IC50 or EC50 that approximates it; bounds were set here for any values at or beyond the usual limits of such assays
- run.conditions: source organism: Escherichia coli O157:H7
value.type: Kd

Reported Kd, sequence `ADLRFASEF` : ____ ≥ 20 µM

###

- target.or.system: HLA-B*08:02
- method.notes: IEDB peptide-MHC binding, purified MHC/direct/fluorescence; filed as Kd, often an IC50 or EC50 that approximates it; bounds were set here for any values at or beyond the usual limits of such assays
- run.conditions: source organism: Coxiella burnetii Q321
pKd: −log10 of the molar value.
value.type: pKd

Reported pKd, sequence `VFFKQWFEK` : ____ ≤ 4.70

###

- target.or.system: HLA-A*24:02
- method.notes: IEDB peptide-MHC binding, purified MHC/competitive/fluorescence; filed as Kd, often an IC50 or EC50 that approximates it; bounds were set here for any values at or beyond the usual limits of such assays
- run.conditions: source organism: Listeria monocytogenes EGD-e
value.type: Kd

Reported Kd, sequence `RYPRSVLTF` : ____ ≤ 0.1 nM

###

- target.or.system: HLA-B*39:01
- method.notes: IEDB peptide-MHC binding, purified MHC/direct/fluorescence; filed as Kd, often an IC50 or EC50 that approximates it; bounds were set here for any values at or beyond the usual limits of such assays
- run.conditions: source organism: Vibrio cholerae V52
pKd: −log10 of the molar value.
value.type: pKd

Reported pKd, sequence `YLKKGRLSL` : ____ ≤ 4.70

###

- target.or.system: HLA-A*23:01
- method.notes: IEDB peptide-MHC binding, purified MHC/competitive/radioactivity; filed as Kd, often an IC50 or EC50 that approximates it; bounds were set here for any values at or beyond the usual limits of such assays
- run.conditions: source organism: SARS coronavirus Tor2
value.type: Kd (µM)
Lab book: enter the figure in µM, no units written.

{"sequence.record": "LYLYALIYF", "Kd / µM": "7.85e-05"}

Reported Kd, sequence `AFRDVLVVL` : ____ 1.97

Reported Kd, sequence `AYSFLPGVY` : ____ 7.4

Reported Kd, sequence `DYSVLYNSTF` : ____ 0.159

Reported Kd, sequence `PFWITAIYVF` : ____ 0.000189

Reported Kd, sequence `QFKDNVILL` : ____ 1.15

###

- target.or.system: HLA-B*27:05
- method.notes: IEDB peptide-MHC binding, purified MHC/direct/fluorescence; filed as Kd, often an IC50 or EC50 that approximates it; bounds were set here for any values at or beyond the usual limits of such assays
- run.conditions: source organism: Bacillus anthracis
pKd: −log10 of the molar value.
value.type: pKd

Reported pKd, sequence `VTECKLIYY` : ____ ≤ 4.70

###

- target.or.system: HLA-B*57:01
- method.notes: IEDB peptide-MHC binding, purified MHC/competitive/fluorescence; filed as Kd, often an IC50 or EC50 that approximates it; bounds were set here for any values at or beyond the usual limits of such assays
- run.conditions: source organism: Orthomarburgvirus marburgense
value.type: Kd

Reported Kd, sequence `YLAPSYRNF` : ____ ≥ 20 µM

###

- target.or.system: HLA-B*53:01
- method.notes: IEDB peptide-MHC binding, purified MHC/competitive/radioactivity; filed as Kd, often an IC50 or EC50 that approximates it; bounds were set here for any values at or beyond the usual limits of such assays
- run.conditions: source organism: SARS coronavirus Tor2
value.type: Kd

Request: Kd, test system HLA-B*53:01, entry `SPLFLIVAA` ≥ 44.7 µM

###

- target.or.system: HLA-A*03:01
- method.notes: IEDB peptide-MHC binding, purified MHC/direct/fluorescence; filed as Kd, often an IC50 or EC50 that approximates it; bounds were set here for any values at or beyond the usual limits of such assays
- run.conditions: source organism: Araucaria virus
pKd: −log10 of the molar value.
value.type: pKd

Request: pKd, test system HLA-A*03:01, entry `LYVAGVPEL` ≤ 4.70

###

- target.or.system: HLA-B*15:09
- method.notes: IEDB peptide-MHC binding, purified MHC/competitive/fluorescence; filed as Kd, often an IC50 or EC50 that approximates it; bounds were set here for any values at or beyond the usual limits of such assays
- run.conditions: source organism: Orthomarburgvirus marburgense
value.type: Kd

Request: Kd, test system HLA-B*15:09, entry `YLAPSYRNF` ≥ 20 µM

###

- target.or.system: HLA-A*11:01
- method.notes: IEDB peptide-MHC binding, purified MHC/direct/fluorescence; filed as Kd, often an IC50 or EC50 that approximates it; bounds were set here for any values at or beyond the usual limits of such assays
- run.conditions: source organism: Mycobacterium tuberculosis
Reported values of Kd for individual entries
Lab book: enter the figure in nM, no units written.

Before answering, review these 3 worked examples.
{"sequence.record": "RSADGSPPY", "target.or.system": "HLA-A*11:01", "unit.of.measurement": "nM", "Kd": 25.7}
{"sequence.record": "ALYLLDGLR", "target.or.system": "HLA-A*11:01", "unit.of.measurement": "nM", "Kd": 7370}
{"sequence.record": "TLLESFLFY", "target.or.system": "HLA-A*11:01", "unit.of.measurement": "nM", "Kd": 10}

Let us move to another entry and its Kd.
Reported Kd, sequence `TTFGRIGVK` : ____ 2

###

- target.or.system: HLA-B*40:01
- method.notes: IEDB peptide-MHC binding, purified MHC/direct/fluorescence; filed as Kd, often an IC50 or EC50 that approximates it; bounds were set here for any values at or beyond the usual limits of such assays
- run.conditions: source organism: Vibrio cholerae
value.type: Kd

{"sequence.record": "RYDYANLCQ", "result.value": "≥ 20 µM"}

Let us move to another entry and its Kd.
Request: Kd, test system HLA-B*40:01, entry `YLKKGRLSL` ≥ 20 µM

###

- target.or.system: HLA-C*14:02
- method.notes: IEDB peptide-MHC binding, purified MHC/direct/fluorescence; filed as Kd, often an IC50 or EC50 that approximates it; bounds were set here for any values at or beyond the usual limits of such assays
- run.conditions: source organism: Azotobacter vinelandii DJ
value.type: pKd
Scale: negative log10 of molar concentration, which is what pKd denotes.

Request: pKd, test system HLA-C*14:02, entry `AMYAPYGPF` 7.41

###

Reported values of Kd for individual entries
- target.or.system: HLA-A*03:01
- method.notes: IEDB peptide-MHC binding, purified MHC/direct/fluorescence; filed as Kd, often an IC50 or EC50 that approximates it; bounds were set here for any values at or beyond the usual limits of such assays
- run.conditions: source organism: Vibrio parahaemolyticus

{"sequence.record": "DTWHGFKNM", "target.or.system": "HLA-A*03:01", "Kd": "≥ 20 µM"}

Let us move to another entry and its Kd.
Reported Kd, sequence `LVAPHMAMM` : ____ ≥ 20 µM

###

- target.or.system: HLA-B*15:01
- method.notes: IEDB peptide-MHC binding, purified MHC/direct/fluorescence; filed as Kd, often an IC50 or EC50 that approximates it; bounds were set here for any values at or beyond the usual limits of such assays
- run.conditions: source organism: Salmonella enterica subsp. enterica serovar Typhimurium
pKd: −log10 of the molar value.
value.type: pKd

Reported pKd, sequence `KSNGAQQWL` : ____ ≤ 4.70

###

- target.or.system: HLA-B*44:02
- method.notes: IEDB peptide-MHC binding, purified MHC/direct/fluorescence; filed as Kd, often an IC50 or EC50 that approximates it; bounds were set here for any values at or beyond the usual limits of such assays
- run.conditions: source organism: Mammarenavirus lassaense
pKd: −log10 of the molar value.
value.type: pKd

Reported pKd, sequence `VPHVIEEVM` : ____ ≤ 4.70
